# TARGET SYSTEM: T1, Inactive-C1s (Homo sapiens, UniProt P09871)
# T1 construct: proenzyme (pro-C1s); also called pro-C1s
# T1 sequence (single chain, looked up): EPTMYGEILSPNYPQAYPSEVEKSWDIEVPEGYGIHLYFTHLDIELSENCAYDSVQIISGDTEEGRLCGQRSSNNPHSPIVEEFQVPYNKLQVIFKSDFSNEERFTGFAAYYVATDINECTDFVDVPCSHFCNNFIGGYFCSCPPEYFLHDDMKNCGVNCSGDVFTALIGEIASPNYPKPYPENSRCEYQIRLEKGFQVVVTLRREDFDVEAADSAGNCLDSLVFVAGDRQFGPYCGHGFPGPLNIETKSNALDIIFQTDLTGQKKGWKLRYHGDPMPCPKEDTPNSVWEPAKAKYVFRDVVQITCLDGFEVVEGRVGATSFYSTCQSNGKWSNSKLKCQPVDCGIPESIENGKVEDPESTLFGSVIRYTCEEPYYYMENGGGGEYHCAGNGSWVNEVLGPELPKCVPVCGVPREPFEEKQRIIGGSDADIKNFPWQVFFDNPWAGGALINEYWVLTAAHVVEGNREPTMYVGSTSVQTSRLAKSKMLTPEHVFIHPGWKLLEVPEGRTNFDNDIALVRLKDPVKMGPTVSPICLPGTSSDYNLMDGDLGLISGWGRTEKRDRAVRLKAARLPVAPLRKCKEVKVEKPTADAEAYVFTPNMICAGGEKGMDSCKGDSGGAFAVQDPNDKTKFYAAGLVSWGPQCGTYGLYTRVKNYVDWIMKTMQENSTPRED
# TEST DESCRIPTION: kinetic binding measurement, method not stated; Table 10, pro-C1s
Field: Kd. Provide a value for each of the binders that follow.
I only need the number, in pM, no unit after it.

Fill in: Kd of VH2/Vk1 (antibody, V domains shown, member of group m7; also called VH2/Vκ1; VH variant 2 + Vk variant 1) VH: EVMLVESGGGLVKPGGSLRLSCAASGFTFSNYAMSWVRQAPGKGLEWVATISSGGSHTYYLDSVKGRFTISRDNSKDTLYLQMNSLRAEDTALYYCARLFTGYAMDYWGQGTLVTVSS VL: QIVLTQSPAILSLSPGERATMSCTASSSVSSSYLHWYQQKPGKAPKLWIYSTSNLASGVPSRFSGSGSGTFYTLTISSLQAEDFATYYCHQYYRLPPITFGQGTKLEIK is ___ 252

Please give the result for VH3/Vk1 (antibody, V domains shown, member of group m7; also called VH3/Vκ1; VH variant 3 + Vk variant 1) VH: EVMLVESGGGLVKPGGSLRLSCAASGFTFSNYAMSWVRQAPGKGLEWVATISSGGSHTYYLDSVKGRFTISRDNSKDTLYLQMSSLRAEDTALYYCARLFTGYAMDYWGQGTSVTVSS VL: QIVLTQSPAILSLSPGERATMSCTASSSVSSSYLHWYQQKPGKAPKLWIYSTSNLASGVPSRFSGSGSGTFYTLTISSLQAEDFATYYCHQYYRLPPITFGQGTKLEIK too. 252
